Source listed as PubChem BioAssay AID2060886.

System: 653999-131-R-J2-PDC complex spheroids, growth inhibition;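 note: spheroids exposed to the agents for seven days before the readout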
Method description: Anticancer human tumor 653999-131-R-J2-PDC patient-derived lung adenocarcinoma cell line growth inhibition [RAS]
Experimental context: second compound 0.3 µM; first compound 0.00949 µM; hits give low values
Quantity name: viability, T/C (%)
Respond numerically; units are % and should not be typed.

Give viability, T/C (653999-131-R-J2-PDC complex spheroids, growth inhibition) of the following compound: CCc1c2c(nc3ccc(O)cc13)-c1cc3c(c(=O)n1C2)COC(=O)[C@]3(O)CC + CCn1c(-c2cccnc2C(C)OC)c2c3cc(ccc31)N1CCOC(CC(NC(=O)C(C(C)C)N(C)C(=O)C3(F)CCN(C(=O)C#CC(C)(C)N(C)C)CC3)C(=O)N3CCCC(N3)C(=O)OCC(C)(C)C2)C1
44.9

Give viability, T/C (653999-131-R-J2-PDC complex spheroids, growth inhibition) of the following compound: CC1(C)CCC(Nc2ncc(C(F)(F)F)c(-c3c[nH]c4c(P(C)(C)=O)c(C#N)ccc34)n2)CN1 (centres undefined) + CCn1c(-c2cccnc2C(C)OC)c2c3cc(ccc31)N1CCOC(CC(NC(=O)C(C(C)C)N(C)C(=O)C3(F)CCN(C(=O)C#CC(C)(C)N(C)C)CC3)C(=O)N3CCCC(N3)C(=O)OCC(C)(C)C2)C1
63.8

Give viability, T/C (653999-131-R-J2-PDC complex spheroids, growth inhibition) of the following compound: CCc1c2c(nc3ccc(O)cc13)-c1cc3c(c(=O)n1C2)COC(=O)[C@]3(O)CC + CCn1c(-c2cc(N3CCN(C)CC3)cnc2C(C)OC)c2c3cc(ccc31)-c1csc(n1)CC(NC(=O)C1CC1C)C(=O)N1CCCC(N1)C(=O)OCC(C)(C)C2
11.6

Give viability, T/C (653999-131-R-J2-PDC complex spheroids, growth inhibition) of the following compound: CC1(C)CCC(Nc2ncc(C(F)(F)F)c(-c3c[nH]c4c(P(C)(C)=O)c(C#N)ccc34)n2)CN1 (centres undefined) + CCn1c(-c2cc(N3CCN(C)CC3)cnc2C(C)OC)c2c3cc(ccc31)-c1csc(n1)CC(NC(=O)C1CC1C)C(=O)N1CCCC(N1)C(=O)OCC(C)(C)C2
14.7
